All figures here come from PubChem BioAssay AID2060892.

Tested on: HOP-62 complex spheroids with HUVEC/MSC, viability
Test: Anticancer human tumor HOP-62 cell line growth inhibition [RAS];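 note: spheroids exposed to agents for seven days before readout; 100% = DMSO vehicle control viability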
Details: second compound 0.316 µM; first compound 10 µM; stronger effect = lower value
Description: RAS pathway inhibitors in Combinations in Complex Spheroids A high-throughput screen of multi-cell type tumor spheroids was designed to identify active combinations of RAS pathway inhibitors and targeted small molecules. Complex spheroids include a stromal component modeled by human endothelial cells (HUVEC) and fibroblasts modeled by human mesenchymal stem cells (MSCs). […] Compounds. […] If the clinical Cmax for an agent had not been determined, the highest concentration tested was 10 microM. […]
READOUT NAME: viability, T/C (%)

1) CC(C)NCC(C(=O)N1CCN(c2ncnc3c2C(C)CC3O)CC1)c1ccc(Cl)cc1 (centres undefined) + C#Cc1c(F)ccc2cc(O)cc(-c3ncc4c(N5CC6CCC(C5)N6)nc(OCC56CCCN5CC(F)C6)nc4c3F)c12	27
2) CCC(CC)c1cc(NC2CCC(N)C2)n2nccc2n1 (centres undefined) + C#Cc1c(F)ccc2cc(O)cc(-c3ncc4c(N5CC6CCC(C5)N6)nc(OCC56CCCN5CC(F)C6)nc4c3F)c12	0.93
3) C[C@@H](NC(=O)c1ncnc(N)c1Cl)c1ncc(C(=O)Nc2cc(C(F)(F)F)c(Cl)cn2)s1 + C#Cc1c(F)ccc2cc(O)cc(-c3ncc4c(N5CC6CCC(C5)N6)nc(OCC56CCCN5CC(F)C6)nc4c3F)c12	62.8
4) Cc1nc(N2CCC3(CC2)COC(C)C3N)c(CO)nc1Sc1ccnc(N)c1Cl (centres undefined) + C=CC(=O)N1CCN(c2nc(OCC3CCCN3C)nc3c(F)c(-c4nc(N)cc(C)c4C(F)(F)F)c(Cl)cc23)C(C)C1	10.7

----------
tested on: HOP-62 complex spheroids with HUVEC/MSC, viability; assay: Anticancer human tumor HOP-62 cell line growth inhibition [RAS]; settings: second compound 0.000949 µM; first compound 0.0316 µM; stronger effect = lower value;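 note: spheroids exposed to agents for seven days before readout; 100% = DMSO vehicle control viability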
Listing of entries alongside the reported viability, T/C.
READOUT NAME: viability, T/C (%)

1. O=C(c1ccc(F)c(F)c1Nc1ccc(I)cc1F)N1CC(O)([C@@H]2CCCCN2)C1 + CCn1c(-c2cccnc2C(C)OC)c2c3cc(ccc31)N1CCOC(CC(NC(=O)C(C(C)C)N(C)C(=O)C3(F)CCN(C(=O)C#CC(C)(C)N(C)C)CC3)C(=O)N3CCCC(N3)C(=O)OCC(C)(C)C2)C1	82
2. C[C@@H](NC(=O)c1ncnc(N)c1Cl)c1ncc(C(=O)Nc2cc(C(F)(F)F)c(Cl)cn2)s1 + CCn1c(-c2cccnc2C(C)OC)c2c3cc(ccc31)N1CCOC(CC(NC(=O)C(C(C)C)N(C)C(=O)C3(F)CCN(C(=O)C#CC(C)(C)N(C)C)CC3)C(=O)N3CCCC(N3)C(=O)OCC(C)(C)C2)C1	113
3. CC1(O)CCCC1n1c(=O)c(C(F)F)cc2cnc(NC3CCN(S(C)(=O)=O)CC3)nc21 (stereo not drawn) + CCn1c(-c2cccnc2C(C)OC)c2c3cc(ccc31)N1CCOC(CC(NC(=O)C(C(C)C)N(C)C(=O)C3(F)CCN(C(=O)C#CC(C)(C)N(C)C)CC3)C(=O)N3CCCC(N3)C(=O)OCC(C)(C)C2)C1	107
4. CCN1CCN(Cc2ccc(Nc3ncc(F)c(-c4cc(F)c5nc(C)n(C(C)C)c5c4)n3)nc2)CC1 + CCn1c(-c2cc(N3CCN(C)CC3)cnc2C(C)OC)c2c3cc(ccc31)-c1csc(n1)CC(NC(=O)C1CC1C)C(=O)N1CCCC(N1)C(=O)OCC(C)(C)C2	85.5
5. NC1c2ccccc2OC12CCN(c1cnc3c(N4CCCc5ncccc54)n[nH]c3n1)CC2 (stereo not drawn) + CCn1c(-c2cccnc2C(C)OC)c2c3cc(ccc31)N1CCOC(CC(NC(=O)C(C(C)C)N(C)C(=O)C3(F)CCN(C(=O)C#CC(C)(C)N(C)C)CC3)C(=O)N3CCCC(N3)C(=O)OCC(C)(C)C2)C1	91.2
6. CCC(CC)c1cc(NC2CCC(N)C2)n2nccc2n1 (stereo not drawn) + CCn1c(-c2cccnc2C(C)OC)c2c3cc(ccc31)N1CCOC(CC(NC(=O)C(C(C)C)N(C)C(=O)C3(F)CCN(C(=O)C#CC(C)(C)N(C)C)CC3)C(=O)N3CCCC(N3)C(=O)OCC(C)(C)C2)C1	126
7. CC(Nc1ccc2c(c1)OCCn1cc(N3C(=O)OCC3C(F)F)nc1-2)C(N)=O (stereo not drawn) + CCn1c(-c2cc(N3CCN(C)CC3)cnc2C(C)OC)c2c3cc(ccc31)-c1csc(n1)CC(NC(=O)C1CC1C)C(=O)N1CCCC(N1)C(=O)OCC(C)(C)C2	91.4
8. CCN1CCN(Cc2ccc(Nc3ncc(F)c(-c4cc(F)c5nc(C)n(C(C)C)c5c4)n3)nc2)CC1 + CCn1c(-c2cccnc2C(C)OC)c2c3cc(ccc31)N1CCOC(CC(NC(=O)C(C(C)C)N(C)C(=O)C3(F)CCN(C(=O)C#CC(C)(C)N(C)C)CC3)C(=O)N3CCCC(N3)C(=O)OCC(C)(C)C2)C1	86.5
